# ASSAY_SYSTEM: Orexin/Hypocretin receptor type 1 (Homo sapiens) (UniProt O43613)
# Sequence (O43613 whole entry, looked up): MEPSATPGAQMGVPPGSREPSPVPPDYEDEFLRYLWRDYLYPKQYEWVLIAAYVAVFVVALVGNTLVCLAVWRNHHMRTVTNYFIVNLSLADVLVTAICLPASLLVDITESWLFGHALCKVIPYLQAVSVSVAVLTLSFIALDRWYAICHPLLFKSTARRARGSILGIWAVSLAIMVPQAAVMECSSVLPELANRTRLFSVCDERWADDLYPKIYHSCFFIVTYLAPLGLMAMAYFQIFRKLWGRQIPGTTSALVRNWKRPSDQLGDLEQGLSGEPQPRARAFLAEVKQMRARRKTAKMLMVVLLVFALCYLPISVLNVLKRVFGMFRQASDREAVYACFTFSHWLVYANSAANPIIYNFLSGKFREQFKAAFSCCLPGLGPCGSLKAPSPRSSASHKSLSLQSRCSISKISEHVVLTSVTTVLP
# EXPERIMENT_SUMMARY: antagonists of human orexin 1 receptor (OX1R) (AID 485270);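 also: 0% = agonist challenge alone and 100% = reference antagonist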
# ASSAY_CONTEXT: OX1R-expressing cells, FRET antagonist read-out; at 6.6 µM
The campaign covered roughly 330,000 compounds. About 5,800 (1.8%) were called active. Rule as the data show it: active = inhibition mostly above about 38% (no sharp cut-off); inactive = mostly below about 40%. This excerpt belongs to a sample that is enriched for actives.
Output constraint: value belongs to active, inactive

Some solved cases for reference:
CCN(C[C@H]1N[C@@](CC)(C(=O)OC)[C@H]2C(=O)N(Cc3ccccc3)C(=O)[C@@H]12)S(=O)(=O)c1ccccc1 ... inactive
CCn1nnc2cc(C(=O)Nc3ccc(C(=O)OC(C)C)cc3)ccc21 ... inactive
C=CCn1c(SCc2cc(C(=O)OC)c(C)o2)nnc1-c1ccncc1 ... inactive

Record lookup: outcome of this test for `O=C1c2cccc3cccc(c23)C(=O)N1CCCCCc1n[nH]c(=S)o1` ?
inactive

Record lookup: outcome of this test for COc1cccc(CNS(=O)(=O)c2ccc3c(c2)CC(C)N3C(C)=O)c1 (centres undefined) ?
inactive

Record lookup: outcome of this test for COc1ccc(N(C)S(=O)(=O)c2ccc3c(c2)CC(C)N3C(=O)C2CC2)c(OC)c1 (centres undefined) ?
inactive

Record lookup: outcome of this test for `C[N+](C)(CCCCCC[N+](C)(C)CCCN1C(=O)c2cccc3cccc(c23)C1=O)CCCN1C(=O)c2cccc3cccc(c23)C1=O` ?
active

Record lookup: outcome of this test for `O=C(COc1cccnc1[N+](=O)[O-])Nc1ccc(Cl)cc1F` ?
inactive

Record lookup: outcome of this test for `Cc1cc(NC(=O)CSc2nnc(-c3ccco3)n2N)no1` ?
inactive

----------
Recorded measurements of inhibition, one per entry
# ASSAY_SYSTEM: Orexin/Hypocretin receptor type 1 (Homo sapiens) (UniProt O43613)
# EXPERIMENT_SUMMARY: antagonists of human orexin 1 receptor (OX1R) (AID 485270);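 also: 0% = agonist challenge alone and 100% = reference antagonist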
# ASSAY_CONTEXT: OX1R-expressing cells, FRET antagonist read-out; at 6.6 µM; active compounds read high
About 5,800 (1.8%) of roughly 330,000 compounds were called active. The full list was thinned out, with actives kept by preference.
Quick note: give the figure in %, leave out the unit.

Example cases with answers are listed next.
Cc1cc(C)cc(NC(=O)C(OC(=O)c2ccc(O)cc2)c2ccccc2)c1 (centres undefined) ... 9.51
O=C(COC(=O)/C=C/c1cccc(Cl)c1)NCc1cccs1 ... 5.6
O=C(CNC(=O)c1n[nH]c2ccccc12)Nc1cc(Cl)ccc1Cl ... 11.3
O=C1N[C@H](Cc2c[nH]c3ccccc23)COC(=O)[C@H](Cc2ccc(F)cc2)C/C=C\C[C@H]1CC(=O)N(CCO)Cc1ccccc1 ... -2.83
O=C(CNC(=O)c1ccccc1F)OCC(=O)c1c[nH]c2ccccc12 ... 3.49
C=CCC[C@@H](Cc1ccc(F)cc1)C(=O)OC[C@@H](C)NC(=O)[C@H](CC=C)CC(=O)N(CCO)Cc1ccccc1 ... 7.32
CCc1ccc(C2C(C#N)=C(N)Oc3n[nH]c(CC(=O)OC)c32)cc1 (centres undefined) ... 1.71
CCNC(=S)N1CCN(S(=O)(=O)c2ccc(Cl)s2)CC1 ... 13.3

Hi! What's the reported inhibition for `CCN(CC)c1ccc(NC(=O)c2ccc(Cl)nc2)cc1` on Orexin/Hypocretin receptor type 1 (Homo sapiens) (UniProt O43613)?
17.1
